- tested_system: β-secretase(BACE) (Homo sapiens, UniProt P56817)
- Construct: purchased Panvera
- Sequence (P56817 46-501): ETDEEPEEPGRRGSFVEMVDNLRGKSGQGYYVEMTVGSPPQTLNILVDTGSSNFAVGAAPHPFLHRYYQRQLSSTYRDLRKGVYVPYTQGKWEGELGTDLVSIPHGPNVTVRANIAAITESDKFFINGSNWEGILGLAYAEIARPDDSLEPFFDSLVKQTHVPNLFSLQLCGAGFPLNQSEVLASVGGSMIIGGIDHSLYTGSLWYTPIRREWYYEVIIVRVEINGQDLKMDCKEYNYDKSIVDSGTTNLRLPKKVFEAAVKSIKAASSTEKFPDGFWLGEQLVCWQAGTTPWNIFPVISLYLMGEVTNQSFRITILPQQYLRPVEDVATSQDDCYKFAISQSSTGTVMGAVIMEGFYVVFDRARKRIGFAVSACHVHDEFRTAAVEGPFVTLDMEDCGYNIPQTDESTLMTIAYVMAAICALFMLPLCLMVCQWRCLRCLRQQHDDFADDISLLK
- method_notes: BACE % Inhibition Assay ((Aedens)-[…]-(Dabcyl K-amide) substrate)
- Type: biochemical
- reported_conditions: 0.3 μM test compound; % error ±10%
Below is a list of entries, each paired with its recorded inhibition at 0.3 µM value.
Use % as the unit, but write only the number.

Please look up its inhibition at 0.3 µM: CCCC(CNC(=O)OC(C)(C)C)N1Cc2cc(Oc3ccccc3)ccc2N=C1N (stereo not drawn) 32

Please look up its inhibition at 0.3 µM: "NC1=Nc2ccc(Oc3ccccc3)cc2CN1CCNC(=O)C1CCCCC1" 63

Please look up its inhibition at 0.3 µM: NC1=Nc2ccc(Oc3ccccc3)cc2CN1C(CNC(=O)C1CCCCC1)c1ccccc1 (stereo not drawn) 50

Please look up its inhibition at 0.3 µM: CC(C)CC(=O)NCC(C1CCCCC1)N1Cc2cc(Oc3ccccc3)ccc2N=C1N (stereo not drawn) 85

New cases:
Please look up its inhibition at 0.3 µM: NC1=Nc2ccc(Oc3ccccc3)cc2CN1C(CNC(=O)CCC1CCCC1)C1CCCCC1 (stereo not drawn) 64

Please look up its inhibition at 0.3 µM: NC1=Nc2ccc(Oc3ccccc3)cc2CN1C(CNC(=O)c1ccccc1)C1CCCCC1 (stereo not drawn) 61

Please look up its inhibition at 0.3 µM: NC1=Nc2ccc(Oc3ccccc3)cc2CN1C(CCNC(=O)C1CCCCC1)C1CCCCC1 (stereo not drawn) 35

Please look up its inhibition at 0.3 µM: CCCC(CNC(=O)C1CCCCC1)N1Cc2cc(Oc3ccccc3)ccc2N=C1N (stereo not drawn) 81

Please look up its inhibition at 0.3 µM: NC1=Nc2ccc(Oc3ccccc3)cc2CN1C(CCNC(=O)C1CCCC1)C1CCCCC1 (stereo not drawn) 75

====

- tested_system: β-secretase(BACE) (Homo sapiens)
- Construct: purchased Panvera
- method_notes: BACE FS1% Inhibition Assay
- Assay type: biochemical
- reported_conditions: 1 μM test compound; FS1 substrate; read-out: % Inhibition (FS)
measured_parameter: inhibition at 1 µM (%)
Use % as the unit, but write only the number.

Could you share what inhibition at 1 µM was measured for "COC(=O)[C@H](COCc1ccccc1)N(C)C(=O)CC[C@@H](C1CCOCC1)N1Cc2cc(Oc3ccccc3)ccc2N=C1N" , tested on β-secretase(BACE) (Homo sapiens)? 105

Could you share what inhibition at 1 µM was measured for "NC1=Nc2ccc(Oc3ccccc3)cc2CN1[C@@H](CCC(=O)N(Cc1ncc[nH]1)C1CCCCC1)C1CCCCC1" , tested on β-secretase(BACE) (Homo sapiens)? 114

Could you share what inhibition at 1 µM was measured for CCOC(=O)C1CCC(N(C)C(=O)CCC(C2CCOCC2)N2Cc3cc(Oc4ccccc4)ccc3N=C2N)CC1 (stereo not shown) , tested on β-secretase(BACE) (Homo sapiens)? 63

Could you share what inhibition at 1 µM was measured for "COC(=O)[C@@H](COCc1ccccc1)N(C)C(=O)CC[C@@H](C1CCOCC1)N1Cc2cc(Oc3ccccc3)ccc2N=C1N" , tested on β-secretase(BACE) (Homo sapiens)? 110

Could you share what inhibition at 1 µM was measured for "CN(C(=O)CC[C@@H](C1CCCCC1)N1Cc2cc(Oc3ccccc3)ccc2N=C1N)[C@H]1CC[C@@H](C(=O)O)CC1" , tested on β-secretase(BACE) (Homo sapiens)? 104

Could you share what inhibition at 1 µM was measured for "COC(=O)[C@H]1CC[C@@H](N(CCO)C(=O)CC[C@@H](C2CCCCC2)N2Cc3cc(Oc4ccccc4)ccc3N=C2N)CC1" , tested on β-secretase(BACE) (Homo sapiens)? 102
